- Tested on: Phytophthora infestans
- Type: in vivo
- condition set: tomato, direct protectant foliar spray
Assign disease control rating PIP to each entry below.

Q) What disease control rating PIP value was documented for this molecule, CC(C)CN(CC(C)C)C1COC2(CCC(C(C)(C)C)CC2)C1 (centres unmarked) [Compound 143] ?
A) 0 (less than 50% disease control)

Q) What about this molecule? CC(C)(C)C1CCC2(CC1)CC(O)(CNC1CCCCC1)CO2 (single isomer, unassigned) [Compound 213]
A) 2 (greater than 80% disease control)

Q) Query CCC(C)(C)C1CCC2(CC1)CC(NC1CCCCC1)CO2 (centres unmarked) [Compound 51] next
A) 2 (greater than 80% disease control)

Q) Please give the result for CC(C)(C)C1CCC2(CC1)CC(Nc1ccccc1)CO2 (centres unmarked) [Compound 22] too.
A) 0 (less than 50% disease control)

Q) Can you handle CCCN(CC1(C)CCCCC1)C1COC2(CCC(C(C)(C)C)CC2)C1 (centres unmarked) [Compound 127] next?
A) 0 (less than 50% disease control)

Q) Try the molecule CCCCCN(CC)C1COC2(CCC(C(C)(C)C)CC2)C1 (centres unmarked) [Compound 72]
A) 0 (less than 50% disease control)

Q) Now consider CCC(CC)NC1COC2(CCC(C(C)(C)C)CC2)C1 (centres unmarked) [Compound 83] .
A) 0 (less than 50% disease control)

Q) Another: CCCCCCNC1COC2(CCC(C(C)(C)C)CC2)C1 (centres unmarked) [Compound 39]
A) 0 (less than 50% disease control)

Q) Next: CCN(CC1CCCCC1)C1COC2(CCC(C(C)(C)C)CC2)C1 (centres unmarked) [Compound 92]
A) 2 (greater than 80% disease control)

Q) CC(C)(C)C1CCC2(CC1)CC(N1CCC(c3ccccc3)CC1)CO2 (centres unmarked) [Compound 4] ?
A) 0 (less than 50% disease control)

Q) Record: C=CCN(CC=C)C1COC2(CCC(C(C)(C)C)CC2)C1 (centres unmarked) [Compound 103]
A) 2 (greater than 80% disease control)

Q) Next up: CCCCCCNC1COC2(CCC(C(C)(C)C)CC2)C1 (centres unmarked) [Compound 2]
A) 0 (less than 50% disease control)

Q) Please do the same for CCCCCCC(C)NC1COC2(CCC(C(C)(C)C)CC2)C1 (centres unmarked) [Compound 105] as well.
A) 0 (less than 50% disease control)

Q) What would you report for CC(C)(C)C1CCC2(CC1)CC(NC1CCC3CCCCC3C1)CO2 (centres unmarked) [Compound 138] ?
A) 2 (greater than 80% disease control)

Q) CN(CC(C)(C)C)C1COC2(CCC(C(C)(C)C)CC2)C1 (centres unmarked) [Compound 131] ?
A) 0 (less than 50% disease control)

Q) Cool, now CCCN(C1COC2(CCC(C(C)(C)C)CC2)C1)C1CC2CCC1C2 (centres unmarked) [Compound 130]
A) 2 (greater than 80% disease control)

Q) Next entry: CCCCCCNC1COC2(CCC(C(C)(C)C)CC2)C1 (centres unmarked) [Compound 38]
A) 0 (less than 50% disease control)

Q) Please do the same for CCCCCCN(C)C1COC2(CCCCC2)C1 (centres unmarked) [Compound 59] as well.
A) 0 (less than 50% disease control)

Q) What would you report for CCCCCCCCNC1COC2(C1)C1CC3CC(C1)CC2C3 (centres unmarked) [Compound 115] ?
A) 1 (about 50-80% disease control)

Q) And then CC(C)CN(CC(C)C)CC1COC2(CCC(C(C)(C)C)CC2)C1 (centres unmarked) [Compound 186] , what is it?
A) 0 (less than 50% disease control)
